Consider the following molecules; for each one, report its pIC50.
Target: Histamine H3 receptor (Homo sapiens, UniProt Q9Y5N1)
Sequence (Q9Y5N1 whole entry): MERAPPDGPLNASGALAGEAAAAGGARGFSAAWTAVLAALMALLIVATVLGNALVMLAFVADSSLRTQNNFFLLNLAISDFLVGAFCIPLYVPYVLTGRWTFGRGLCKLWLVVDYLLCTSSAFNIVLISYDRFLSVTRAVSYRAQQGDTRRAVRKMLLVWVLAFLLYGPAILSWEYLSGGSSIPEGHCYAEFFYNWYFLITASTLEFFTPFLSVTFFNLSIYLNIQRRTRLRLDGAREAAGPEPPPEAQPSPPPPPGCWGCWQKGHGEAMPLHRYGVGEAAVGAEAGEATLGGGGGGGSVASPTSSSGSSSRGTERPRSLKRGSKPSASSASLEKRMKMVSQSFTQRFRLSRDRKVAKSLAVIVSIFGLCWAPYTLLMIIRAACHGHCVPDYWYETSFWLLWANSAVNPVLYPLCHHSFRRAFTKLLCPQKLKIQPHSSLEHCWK
Assay: Antagonist activity at human H3 receptor by TR-FRET assay
Conceptually, pIC50 converts a concentration in mol/L into minus its log10.

*Q* Write down pIC50 measured for item CN1CCN(CCCOc2ccc(/C=C/c3cc(=O)c(O)cn3C)cc2)CC1
*A* 6.45

*Q* Write down pIC50 measured for item O=c1cc(/C=C/c2ccc(OCCCN3CCOCC3)cc2)occ1O
*A* 7.16

*Q* Write down pIC50 measured for item CCN(CC)CCCOc1ccc(/C=C/c2cc(=O)c(O)co2)cc1
*A* 7.77

*Q* Write down pIC50 measured for item CN(C)CCCOc1ccc(/C=C/c2cc(=O)c(O)cn2C)cc1
*A* 7.07

*Q* Write down pIC50 measured for item Cc1oc(/C=C/c2ccc(OCCCN3CCCCC3)cc2)cc(=O)c1O
*A* 8.58

*Q* Write down pIC50 measured for item CCn1cc(O)c(=O)cc1/C=C/c1ccc(OCCCN2CCCCC2)cc1
*A* 8.29

----------
Molecular target: Amyloid-beta precursor protein (Homo sapiens)
Sequence (P05067 whole entry): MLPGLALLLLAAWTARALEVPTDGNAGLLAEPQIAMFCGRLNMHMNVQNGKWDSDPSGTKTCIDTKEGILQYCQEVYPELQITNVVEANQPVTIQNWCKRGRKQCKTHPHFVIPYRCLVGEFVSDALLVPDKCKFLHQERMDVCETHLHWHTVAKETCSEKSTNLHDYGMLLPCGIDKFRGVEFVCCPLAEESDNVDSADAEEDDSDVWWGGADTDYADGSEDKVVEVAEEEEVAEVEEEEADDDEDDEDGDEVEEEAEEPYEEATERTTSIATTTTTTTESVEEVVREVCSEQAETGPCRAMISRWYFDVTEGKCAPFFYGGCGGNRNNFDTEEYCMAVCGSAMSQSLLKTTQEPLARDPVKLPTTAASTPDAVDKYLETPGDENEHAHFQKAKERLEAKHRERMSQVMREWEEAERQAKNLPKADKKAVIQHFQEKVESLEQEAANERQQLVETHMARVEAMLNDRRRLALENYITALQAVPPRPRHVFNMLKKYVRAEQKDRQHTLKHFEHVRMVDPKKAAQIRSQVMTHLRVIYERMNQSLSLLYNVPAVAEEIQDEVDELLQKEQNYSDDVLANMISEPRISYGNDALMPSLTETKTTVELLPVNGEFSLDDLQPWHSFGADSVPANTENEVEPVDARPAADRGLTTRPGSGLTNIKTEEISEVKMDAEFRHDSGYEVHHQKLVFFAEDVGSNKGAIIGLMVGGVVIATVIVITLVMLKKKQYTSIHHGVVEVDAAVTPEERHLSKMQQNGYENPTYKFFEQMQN
Experiment: Inhibition of amyloid beta (1 to 42) (unknown origin) self-induced aggregation at 20 uM incubated for 24 hrs by Thioflavin T based fluorometric assay relative to control
Reported Endpoint: inhibition (%)
Kindly answer with a numeric value in %, unit omitted.

*Q* Write down inhibition measured for item Cc1oc(/C=C/c2ccc(OCCCN3CCCC3)cc2)cc(=O)c1O
*A* 74.7

*Q* Write down inhibition measured for item O=c1cc(/C=C/c2ccc(OCCCN3CCCCC3)cc2)occ1O
*A* 90.8

*Q* Write down inhibition measured for item O=c1cc(/C=C/c2ccc(OCCCN3CCOCC3)cc2)occ1O
*A* 93.3

*Q* Write down inhibition measured for item O=c1cc(/C=C/c2ccc(OCCCN3CCCC3)cc2)occ1O
*A* 91.4

*Q* Write down inhibition measured for item CN1CCN(CCCOc2ccc(/C=C/c3cc(=O)c(O)co3)cc2)CC1
*A* 89.8

*Q* Write down inhibition measured for item CCn1cc(O)c(=O)cc1/C=C/c1ccc(OCCCN2CCCC2)cc1
*A* 97.6

*Q* Write down inhibition measured for item CN(C)CCCOc1ccc(/C=C/c2cc(=O)c(O)co2)cc1
*A* 76.7

*Q* Write down inhibition measured for item CCn1cc(O)c(=O)cc1/C=C/c1ccc(OCCCN2CCCCC2)cc1
*A* 86.8

*Q* Write down inhibition measured for item Cc1oc(/C=C/c2ccc(OCCCN3CCCCC3)cc2)cc(=O)c1O
*A* 74.8

*Q* Write down inhibition measured for item CN(C)CCCOc1ccc(/C=C/c2cc(=O)c(O)cn2C)cc1
*A* 70.4

*Q* Write down inhibition measured for item CCN(CC)CCCOc1ccc(/C=C/c2cc(=O)c(O)cn2C)cc1
*A* 85
